Assay: Keratinocyte viability/toxicity: MTT test, microscopy, flow cytometry for apoptosis and necrosis
Assay type: cell-based
Details: keratinocytes; tested at 1-25 µM; read-out: Zellvitalität (MTT-Test): nicht toxisch bis
parameter: MNTC

compound_string	endpoint_value
CCCCCCCCCCCCC/C=C/[C@@H](O)[C@@H](N)COP(=O)(O)O	≤ 10 µM

----------
The compounds listed here are annotated with their MCC.
Test: Fibroblast proliferation, non-stimulated cells in serum-free medium (DMEM without FKS)
Assay type: cell-based
Conditions: human, fibroblasts, read-out: Konzentrationen mit ausgeprägter Toxizität an Fibroblasten
From the text: Das Wachstumsverhalten menschlicher. Fibroblasten in Gegenwart der Testsubstanzen wurde an nicht stimulierten Zellen verfolgt, die in serumfreiem Medium (nach Dulbecco modifiziertes Earle-Medium (DMEM) ohne fetales Kälber-Serum (FKS)) kultiviert wurden.

compound	MCC
CCCCCCCCCCCCC/C=C/[C@@H](O)[C@H](CO)N(C)C [DMS, Dimethylsphingosin]	≥ 5 µM
CCCCCCCCCCCCC/C=C/[C@@H](O)[C@H](CO)NC(C)=O [C2C, C2-Ceramid]	≥ 5 µM
